These data points were gathered from patent US20050234225A1.

The entries below are paired with their reported koff.
System Under Test: T1, KDR-alkaline phosphatase (AP) soluble fusion protein (human, UniProt P35968 20-764)
T1 construct: Expressed in NIH 3T3 cells as in Lu et al. 2000; also called KDR-AP; full length KDR-AP; not shown: alkaline phosphatase (AP) fusion partner
T1 sequence (P35968 20-764): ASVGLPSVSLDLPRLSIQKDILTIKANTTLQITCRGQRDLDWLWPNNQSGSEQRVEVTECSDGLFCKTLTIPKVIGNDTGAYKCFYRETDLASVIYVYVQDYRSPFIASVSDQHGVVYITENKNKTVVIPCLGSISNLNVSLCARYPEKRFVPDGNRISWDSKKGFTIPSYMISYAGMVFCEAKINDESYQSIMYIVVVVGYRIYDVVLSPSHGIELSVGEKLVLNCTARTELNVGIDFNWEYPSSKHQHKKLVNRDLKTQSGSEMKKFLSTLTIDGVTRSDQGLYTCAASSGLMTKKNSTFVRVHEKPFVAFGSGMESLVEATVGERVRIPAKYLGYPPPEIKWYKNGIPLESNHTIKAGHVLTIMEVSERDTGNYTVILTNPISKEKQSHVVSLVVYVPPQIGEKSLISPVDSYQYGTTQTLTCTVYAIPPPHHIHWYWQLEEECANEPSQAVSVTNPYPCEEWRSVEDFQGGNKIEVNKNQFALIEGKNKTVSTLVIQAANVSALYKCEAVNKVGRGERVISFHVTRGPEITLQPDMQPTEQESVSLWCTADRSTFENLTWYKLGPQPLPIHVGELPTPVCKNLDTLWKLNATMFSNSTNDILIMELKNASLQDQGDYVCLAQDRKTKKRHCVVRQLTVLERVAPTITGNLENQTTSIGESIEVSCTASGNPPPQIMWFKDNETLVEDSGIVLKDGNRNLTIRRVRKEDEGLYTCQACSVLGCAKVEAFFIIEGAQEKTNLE
Assay Comment: BIAcore SPR, KDR immobilized
Give the quantity in s⁻¹, number only.

Answered cases to consult:
Prompt line: State its koff: IMC-2C6 IgG (antibody, V domains shown) VH: EVQLVQSGGGLVKPGGSLRLSCAASGFTFSSYSMNWVRQAPGKGLEWVSSISSSSSYIYYADSVKGRFTISRDNAKNSLYLQMNSLRAEDTAVYYCARVTDAFDIWGQGTMVTVSS VL: EIVMTQSPATLSLSPGERATLSCRASQSVSSYLAWYQQKPGQAPRLLIYDSSNRATGIPARFSGSGSGTDFTLTISSLEPEDFATYYCLQHNTFPPTFGQGTKVEIK
Response line: 4.3e-05

Prompt line: Specify measured koff for D2C6 Fab (Fab, V domains shown, Soluble human Fab from E. coli HB2151; also called Hu-2C6 Fab; Hu-2C6) VH: EVQLVQSGGGLVKPGGSLRLSCAASGFTFSSYSMNWVRQAPGKGLEWVSSISSSSSYIYYADSVKGRFTISRDNAKNSLYLQMNSLRAEDTAVYYCARVTDAFDIWGQGTMVTVSS VL: EIVMTQSPATLSLSPGERATLSCRASQSVSSYLAWYQQKPGQAPRLLIYDSSNRATGIPARFSGSGSGTDFTLTISSLEPEDFATYYCLQHNTFPPTFGQGTKVEIK .
Response line: 0.00055

---
Prompt line: Give koff for the following binder: IMC-1121 IgG (antibody, V domains shown) VH: EVQLVQSGGGLVKPGGSLRLSCAASGFTFSSYSMNWVRQAPGKGLEWVSSISSSSSYIYYADSVKGRFTISRDNAKNSLYLQMNSLRAEDTAVYYCARVTDAFDIWGQGTMVTVSS VL: DIQMTQSPSSVSASIGDRVTITCRASQGIDNWLGWYQQKPGKAPKLLIYDASNLDTGVPSRFSGSGSGTYFTLTISSLQAEDFAVYFCQQAKAFPPTFGGGTKVDIK
Response line: 2.5e-05

Prompt line: Determine its reported koff: Hu-1121 Fab (Fab, V domains shown, see also CLM-00007) with new light chains) VH: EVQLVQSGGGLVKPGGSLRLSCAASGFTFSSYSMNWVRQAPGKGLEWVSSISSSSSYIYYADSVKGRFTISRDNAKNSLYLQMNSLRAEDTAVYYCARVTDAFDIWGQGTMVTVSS VL: DIQMTQSPSSVSASIGDRVTITCRASQGIDNWLGWYQQKPGKAPKLLIYDASNLDTGVPSRFSGSGSGTYFTLTISSLQAEDFAVYFCQQAKAFPPTFGGGTKVDIK
Response line: 3.1e-05
